Each entry below carries its reported IC50.
- System tested: DRB1*0802 (Homo sapiens, UniProt P01903+P01911, A100R/A103L/A169T/F76Y/H45Y/I96F/K41T/L162R/M171V/P40S/Q125H/Q178H/Q39Y/Q99D/R218S/R42G/S66Y/V115G/W38E)
- Experiment notes: biochemical
- Assay type: binding

CC[C@H](C)[C@H](NC(=O)[C@H](CO)NC(=O)[C@H](CO)NC(=O)[C@H](CC(=O)O)NC(=O)[C@H](C)NC(=O)[C@H](CC(N)=O)NC(=O)[C@@H](NC(=O)[C@H](Cc1ccc(O)cc1)NC(=O)[C@H](C)NC(=O)[C@@H](N)C(C)C)[C@@H](C)CC)C(=O)N[C@@H](CCC(=O)O)C(=O)NCC(=O)N[C@@H](CC(N)=O)C(=O)N[C@@H](Cc1ccc(O)cc1)C(=O)N[C@H](C(=O)O)[C@@H](C)O [Peptide 68.0177]    > 20 µM

// next entry
Qu. // returns reported IC50 for input CC[C@H](C)[C@H](NC(=O)[C@@H]1CCCN1C(=O)[C@H](CC(N)=O)NC(=O)[C@@H](N)Cc1c[nH]c2ccccc12)C(=O)N[C@@H](CC(C)C)C(=O)N[C@@H](CC(C)C)C(=O)N[C@@H](Cc1c[nH]c2ccccc12)C(=O)N[C@@H](CCC(N)=O)C(=O)N1CCC[C@H]1C(=O)N[C@H](C(=O)N1CCC[C@H]1C(=O)N[C@H](C(=O)N[C@@H](Cc1c[nH]cn1)C(=O)N[C@H](C(=O)N[C@H](C(=O)O)C(C)C)[C@@H](C)O)C(C)C)[C@@H](C)CC [Peptide 68.0035]
Ans. > 20 µM

----------
Each entry below carries its reported IC50.
- System tested: A*0206 (Homo sapiens, UniProt P04439, D140Y/D185E/D98H/E176V/E277Q/F33Y/G131W/G231S/I119V/I121R/I166T/I218V/L300P/L318F/N151K/N90K/P208A/P217A/Q86G/Q94H/R138H/R169H/T345S)
- Experiment notes: biochemical
- Type: binding
No end group written: not given here.
Express it in nM; write the number only.

WLNNQSLPV [Peptide 9013.0070]    978
ILYPNASLLI [Peptide 9013.0145]    252
GLLVGVALI [Peptide 9013.0111]    206
LTNTGLYNL [Peptide 1481.17]    1830
TLVLFIAKI [Peptide 9013.0106]    29

// next entry
Qu. // returns reported IC50 for input FQFQNPFPL [Peptide 1578.40]
Ans. 6.3

----------
- System tested: DRB4*0101 (Homo sapiens, UniProt P01903+P13762, G164S)
- Experiment notes: biochemical
- Type: binding
No end group written: not given here.
Each entry below carries its reported log10(IC50).
Quick note: numbers are log10 of IC50, with µM as the unit.

// below: answered sequences
KNRLTVAKLMSNLLS [Peptide 89.0064]    -1.60
VTVFTFPHAFPFDKN [Peptide 89.0092]    0.18
TPEWIERQTVLQHSF [Peptide 89.0048]    -1.72
LNTVKIPNTVSVSTG [Peptide 89.0178]    0.41
ETHMVIEPPKLRSAT [Peptide 89.0103]    0.59

Qu. // returns reported log10(IC50) for input DSQIAFQYAQLADVD [Peptide 89.0130]
Ans. -1.85

Qu. Entry to check: GVNHQHLPARRAEPQ [Peptide 1543.05]
Ans. 1.16

Qu. Entry to check: IIHLKGDANILKCLR [Peptide 90.0197]
Ans. -0.15

Qu. Entry to check: AKLMSNLLSIPETCM [Peptide 89.0066]
Ans. -0.38

Qu. Entry to check: RGIIILLLIRFRCSK [Peptide 89.0063]
Ans. -0.55

Qu. Entry to check: LIKFFQGSVISFVNS [Peptide 89.0135]
Ans. 0.57

Qu. Entry to check: VMAIFGVNPTVAEGF [Peptide 89.0080]
Ans. -1.10

Qu. Entry to check: ISEVMGDTPEWIQRL [Peptide 90.0052]
Ans. 0.31

----------
- System tested: HLA-A3.2 (A*0301) (Homo sapiens)
- Experiment notes: biochemical
- Type: binding
pIC50: −log10 of the molar value. No end group written: not given here.
pIC50 vs 6: at or above is criterion met, below is criterion not met.

KQRFHNIRGR [Peptide 78.0083]    criterion not met
KMFCQLAR [Peptide 1556.53]    criterion met
QLVTQLMPK [Peptide 9012.0211]    criterion met
CFYSPALNK [Peptide 1556.43]    criterion met
GLYYIHGNEK [Peptide 1589.40]    criterion met
KQFLQGVPK [Peptide 88.0390]    criterion met

Next sequence, please.
Qu. Quick check, pIC50 >= 6? VTIRVGGQLR [Peptide 1516.07]
Ans. criterion not met

----------
Each entry below carries its reported pIC50.
- System tested: HLA-A*0201 (HLA-A2.1) (Homo sapiens, UniProt P04439, D140Y/D185E/D98H/E176V/E277Q/G131W/G231S/I119V/I121R/I166T/I218V/L300P/L318F/N151K/N90K/P208A/P217A/Q86G/Q94H/R138H/R169H/T345S)
- Experiment notes: biochemical
- Type: binding
No end group written: not given here.
The value called pIC50 is obtained by taking minus log10 of the concentration in mol/L.

// below: answered sequences
RTLTLLSVV [Peptide 9013.0075]    6.30
FQGSVISFV [Peptide 1578.38]    7.82
QLHTQELFI [Peptide 9013.0079]    6.08

Qu. // returns reported pIC50 for input TLDATYLWWV [Peptide 9013.0158]
Ans. 7.21

Qu. Entry to check: TLTTITVYA [Peptide 9013.0069]
Ans. 7.85

Qu. Entry to check: RLLLTASLLV [Peptide 9013.0117]
Ans. 7.24

Qu. Entry to check: KLLSKLLCV [Peptide 1578.03]
Ans. 7.26

Qu. Entry to check: LTFWNPPTTV [Peptide 9013.0122]
Ans. 6.68

Qu. Entry to check: RVLQQLLFI [Peptide 1545.01]
Ans. 7.57

Qu. Entry to check: ALYSWLIDGNI [Peptide 9013.0315]
Ans. 7.60

Qu. Entry to check: VLAEAMSHV [Peptide 1516.08]
Ans. 7.54

Qu. Entry to check: MTRNPPVPV [Peptide 1539.02]
Ans. 5.04

Qu. Entry to check: TLKLTIEST [Peptide 9013.0010]
Ans. 4.74

Qu. Entry to check: YLLHVIKSDL [Peptide 9013.0152]
Ans. 7.07

Qu. Entry to check: LIQPFILYA [Peptide 1578.07]
Ans. 6.91

----------
- System tested: HLA-A*0201 (HLA-A2.1) (Homo sapiens, UniProt P04439, D140Y/D185E/D98H/E176V/E277Q/G131W/G231S/I119V/I121R/I166T/I218V/L300P/L318F/N151K/N90K/P208A/P217A/Q86G/Q94H/R138H/R169H/T345S)
- Experiment notes: biochemical
- Assay type: binding
Each entry below carries its reported A*0201.
Reply with the value as a number alone.

ATVGIJIGV [Peptide 1345.02]    0.1595
CLLAKTCPV [Peptide 1326.01]    0.0400
YMCNSSCMGGM [Peptide 1323.29]    0.0075
LVFGIELJEV [Peptide 1345.04]    0.7650
IJIGVLVGV [Peptide 1345.01]    0.0570

Qu. // returns reported A*0201 for input GMCCPDLSPV [Peptide 41.0157]
Ans. 0.0950

Qu. Entry to check: YMIMVKBWMI [Peptide 1334.04]
Ans. 0.2700

----------
- System tested: HLA-A*0201 (HLA-A2.1) (Homo sapiens, UniProt P04439, D140Y/D185E/D98H/E176V/E277Q/G131W/G231S/I119V/I121R/I166T/I218V/L300P/L318F/N151K/N90K/P208A/P217A/Q86G/Q94H/R138H/R169H/T345S)
- Experiment notes: biochemical
- Assay type: binding
Mark true only when binding to HLA-A2.1 (column 3; no allele head shown for these rows) stays strictly below 0.0003. Values equal to the cut-off are false.

SLFRAVITKKV    true
YLQLVFGIEV    false
YEFLWGPRA    true
EVDPIGHLYI    true
GLSYDGLLV    false
AATSSSSPLV    true
KVADLVGFL    false
VLVTCLGL    false

Qu. Hello, is binding to HLA-A2.1 (column 3; no allele head shown for these rows) of the following sequence strictly smaller than 0.0003? "EIWEELSVMEV"
Ans. false

Qu. Entry to check: "AVITKKVA"
Ans. true

Qu. Entry to check: "YLEYGRCRT"
Ans. true

Qu. Entry to check: "VLEYVIKVSA"
Ans. true

Qu. Entry to check: "QIMPKTGFLI"
Ans. false

Qu. Entry to check: "YMFLWGPRV"
Ans. false
